Target: wild-type p53 DBD (Homo sapiens, UniProt P04637)
Construct: Recombinant DBD (residues 94-312) from wild-tvpe and mutant p53 proteins
Sequence (P04637 94-312): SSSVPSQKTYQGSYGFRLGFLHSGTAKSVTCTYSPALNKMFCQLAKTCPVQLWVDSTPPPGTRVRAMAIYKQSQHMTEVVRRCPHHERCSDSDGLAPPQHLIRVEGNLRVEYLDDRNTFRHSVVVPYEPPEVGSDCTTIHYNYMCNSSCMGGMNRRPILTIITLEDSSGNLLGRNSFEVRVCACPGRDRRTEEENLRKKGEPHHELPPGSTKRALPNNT
Test: p53 DBD thermostabilization assay (ELISA for mAb1620 epitope)
Details: 0.5 ng of p53 DBD heated at 45° C. for 30 minutes; read-out: SC50: concentration of compound required to preserve 50% of the epitope for mAb 1620
Examples of compounds with documented pEC50 follow.
Bear in mind: pEC50 is minus log10 of a mol/L concentration; give just that figure.

CCN(CC)CCCCNc1c2ccccc2cc2ncccc12 [Compound 3B] : 3.92
C(=C\c1nc(NCCCN2CCOCC2)c2ccccc2n1)/c1ccccc1 [Compound 1A] : 4.44
CCN(CC)CCCNc1c2ccccc2cc2ncccc12 [Compound 3A] : 4.30
CC(CN(C)C)CN1c2ccccc2Sc2ccccc21 (centres unmarked) [Compound 4A] : 4.42

Could you now consider this next compound?
Query :: What is its pEC50 for wild-type p53 DBD (Homo sapiens, UniProt P04637)? Entry: c1ccc2c(NCCCN3CCOCC3)c3cccnc3cc2c1 [Compound 2A]
Result :: 3.92
